- Test system: Z-138 cell line
- Test Summary: Z-138 Proliferation Assay (Cell Titer Glo, 5 days)
- Assay type: cell-based
- Settings: Homo sapiens, 120 h; Z-138 cells, 5 days, Cell Titer Glo; read-out: Proliferation EC50
Attribute Measured: EC50

>  <Compound>
COC(CNC(=O)c1cc(NC2CCN(C(C)=O)CC2)ncn1)CN1CCc2ccccc2C1 (centres unmarked) [Compound 542]

>  <Measurement Target>
Z-138 cell line

>  <Attribute Measured>
EC50

>  <Result>
> 5000 nM

$$$$
>  <Compound>
O=C(NC[C@H](O)CN1CCc2ccccc2C1)c1cc(NC2CN(C(=O)C3CC3)C2)ncn1 [Compound 425]

>  <Measurement Target>
Z-138 cell line

>  <Attribute Measured>
EC50

>  <Result>
< 100 nM

$$$$
>  <Compound>
CC(=O)N1CC(Nc2cc(C(=O)NC[C@H](O)CN3CCc4ccccc4C3)nc(N3CCOCC3)n2)C1 [Compound 443]

>  <Measurement Target>
Z-138 cell line

>  <Attribute Measured>
EC50

>  <Result>
< 100 nM

$$$$
>  <Compound>
O=C(NC[C@H](O)CN1CCc2ccccc2C1)c1cn2nc(Cl)ccc2n1 [Compound 404]

>  <Measurement Target>
Z-138 cell line

>  <Attribute Measured>
EC50

>  <Result>
10000 to 50000 nM

$$$$
>  <Compound>
CC(CNC(=O)c1cc(NC2COC2)ncn1)CN1CCc2ccccc2C1 (centres unmarked) [Compound 657]

>  <Measurement Target>
Z-138 cell line

>  <Attribute Measured>
EC50

>  <Result>
> 5000 nM

$$$$
>  <Compound>
CNC(=O)[C@H]1CC[C@H](Nc2cc(C(=O)NC[C@H](O)CN3CCc4ccccc4C3)ncn2)CC1 [Compound 602]

>  <Measurement Target>
Z-138 cell line

>  <Attribute Measured>
EC50

>  <Result>
101 to 1000 nM

$$$$
>  <Compound>
CN(C)C(=O)[C@H]1C[C@@H](Nc2cc(C(=O)NC[C@H](O)CN3CCc4ccccc4C3)ncn2)C1 [Compound 515]

>  <Measurement Target>
Z-138 cell line

>  <Attribute Measured>
EC50

>  <Result>
101 to 1000 nM

$$$$
>  <Compound>
CNC(=O)CN1CC(Nc2cc(C(=O)NC[C@H](O)CN3CCc4ccccc4C3)ncn2)C1 [Compound 622]

>  <Measurement Target>
Z-138 cell line

>  <Attribute Measured>
EC50

>  <Result>
1000 to 10000 nM

$$$$

* * *

- Measurement Target: PRMT5/MEP50 (Homo sapiens (Human), UniProt O14744)
- Sequence (O14744 other isoform, or with tags, fused parts or gaps): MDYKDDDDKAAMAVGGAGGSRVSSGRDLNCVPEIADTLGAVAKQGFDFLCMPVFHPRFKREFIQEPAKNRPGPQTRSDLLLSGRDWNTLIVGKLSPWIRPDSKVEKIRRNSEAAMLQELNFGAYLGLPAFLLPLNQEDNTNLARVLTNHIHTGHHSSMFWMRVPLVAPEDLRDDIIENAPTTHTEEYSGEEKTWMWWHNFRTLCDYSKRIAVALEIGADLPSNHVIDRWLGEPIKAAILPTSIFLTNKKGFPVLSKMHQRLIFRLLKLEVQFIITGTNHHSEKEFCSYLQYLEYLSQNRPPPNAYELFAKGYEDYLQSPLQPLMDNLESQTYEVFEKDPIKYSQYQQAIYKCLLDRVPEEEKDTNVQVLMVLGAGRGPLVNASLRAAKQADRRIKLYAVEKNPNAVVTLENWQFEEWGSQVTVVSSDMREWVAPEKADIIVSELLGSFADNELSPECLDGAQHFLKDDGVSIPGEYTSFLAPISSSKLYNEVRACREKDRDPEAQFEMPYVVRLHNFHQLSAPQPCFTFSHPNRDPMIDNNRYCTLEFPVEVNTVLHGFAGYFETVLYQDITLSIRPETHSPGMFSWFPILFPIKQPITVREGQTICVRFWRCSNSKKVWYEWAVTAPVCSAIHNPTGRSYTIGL
- Sequence (Q9BQA1 other isoform, or with tags, fused parts or gaps partner): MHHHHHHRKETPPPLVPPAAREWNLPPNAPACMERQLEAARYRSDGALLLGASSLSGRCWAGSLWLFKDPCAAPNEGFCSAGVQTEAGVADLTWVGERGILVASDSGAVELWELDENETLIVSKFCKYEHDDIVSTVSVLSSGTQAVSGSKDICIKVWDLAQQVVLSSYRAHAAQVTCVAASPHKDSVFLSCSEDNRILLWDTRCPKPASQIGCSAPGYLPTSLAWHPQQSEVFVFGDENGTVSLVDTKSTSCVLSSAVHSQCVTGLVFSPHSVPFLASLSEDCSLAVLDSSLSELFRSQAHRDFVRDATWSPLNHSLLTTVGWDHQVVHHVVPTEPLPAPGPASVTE
- Test Summary: PRMT5 Biochemical Assay (PRMT5/MEP50 enzyme assay on peptide substrate, 3H-SAM Flashplate)
- Settings: PRMT5 biochemical assay
pIC50: −log10 of the molar value.

>  <Compound>
CC(C)Oc1nc(NC2CNC2)cc(C(=O)NC[C@H](O)CN2CCc3ccccc3C2)n1

>  <pIC50>
> 7.00

$$$$
>  <Compound>
O=C(NC[C@H](O)CN1CCc2ccccc2C1)c1cc(N[C@H]2CC[C@H](O)CC2)ncn1

>  <pIC50>
> 7.00

$$$$
>  <Compound>
CC(=O)N1CCC(Nc2cc(C(=O)NC[C@H](O)CN3CCc4ccccc4C3)nc(N3CCN(C)CC3)c2)CC1

>  <pIC50>
> 7.00

$$$$
>  <Compound>
Cc1cnc(NC2CCN(C)C2)cc1C(=O)NC[C@H](O)CN1CCc2ccccc2C1 (stereo partly shown)

>  <pIC50>
> 7.00

$$$$
>  <Compound>
CSCCNc1cc(C(=O)NC[C@H](O)CN2CCc3ccccc3C2)ncn1

>  <pIC50>
> 7.00

$$$$
>  <Compound>
CCCC(=O)N1CC(Nc2cc(C(=O)NC[C@H](O)CN3CCc4ccccc4C3)ccn2)C1

>  <pIC50>
> 7.00

$$$$
>  <Compound>
CN(C)[C@H]1CC[C@H](Nc2cc(C(=O)NC[C@H](O)CN3CCc4ccccc4C3)ncn2)CC1

>  <pIC50>
> 7.00

$$$$
>  <Compound>
CCSCCN1CC(Nc2cc(C(=O)NC[C@H](O)CN3CCc4ccccc4C3)ncn2)C1

>  <pIC50>
> 7.00

$$$$
>  <Compound>
O=C(NC[C@H](O)CN1CCc2ccccc2C1)c1cc(NC2CCN(C(=O)C3CCC3)CC2)ccn1

>  <pIC50>
> 7.00

$$$$
>  <Compound>
CCOc1nc(NC2CNC2)cc(C(=O)NC[C@H](O)CN2CCc3ccccc3C2)n1

>  <pIC50>
> 7.00

$$$$
>  <Compound>
CCCC(=O)N1CCC(Nc2cc(C(=O)NC[C@H](O)CN3CCc4ccccc4C3)ncn2)CC1

>  <pIC50>
> 7.00

$$$$
>  <Compound>
CC(C)(O)CNCC1CN2C=NC(C(=O)NC[C@H](O)CN3CCc4ccccc4C3)=CC2=N1 (stereo partly shown)

>  <pIC50>
6.00 to 7.00

$$$$
>  <Compound>
CN(C)c1nc(NC2COC2)cc(C(=O)NC[C@H](O)CN2CCc3ccccc3C2)n1

>  <pIC50>
> 7.00

$$$$
>  <Compound>
Cc1cnc(NC2CN(C)C2)cc1C(=O)NC[C@H](O)CN1CCc2ccccc2C1

>  <pIC50>
> 7.00

$$$$
>  <Compound>
CC(=O)N1CCN(c2cc(C(=O)NC[C@H](O)CN3CCc4ccccc4C3)cc(NC3CCC3)n2)CC1

>  <pIC50>
> 7.00

$$$$
>  <Compound>
CC(=O)N1CCC(Nc2cc(C(=O)NC[C@H](O)CN3CCc4ccccc4C3(C)C)ncn2)CC1

>  <pIC50>
6.00 to 7.00

$$$$

* * *

- Tested on: Z-138 cell line
- Test Summary: Z-138 Proliferation Assay (Cell Titer Glo, 5 days)
- Format: cell-based
- Settings: Homo sapiens, 120 h; Z-138 cells, 5 days, Cell Titer Glo; read-out: Proliferation EC50
Listing of recorded EC50 by entry.

>  <Compound>
CC(=O)N1CCC(Nc2cc(C(=O)NCCCN3CCc4ccccc4C3)ncn2)CC1

>  <EC50>
1000 to 10000 nM

$$$$
>  <Compound>
O=C(NC[C@H](O)CN1CCc2ccccc2C1)c1cc(NC2CNC2)nc(C(F)(F)F)n1

>  <EC50>
101 to 1000 nM

$$$$
>  <Compound>
CN(C)C(=O)[C@H]1CC[C@H](Nc2cc(C(=O)NC[C@H](O)CN3CCc4ccccc4C3)ncn2)CC1

>  <EC50>
< 100 nM

$$$$
>  <Compound>
C[C@@H](N1CC(Nc2cc(C(=O)NC[C@H](O)CN3CCc4ccccc4C3)ncn2)C1)C(F)(F)F

>  <EC50>
1000 to 10000 nM

$$$$
>  <Compound>
CN[C@H]1CC[C@@H](Nc2cc(C(=O)NC[C@H](O)CN3CCc4ccccc4C3)ncn2)CC1

>  <EC50>
> 5000 nM

$$$$
>  <Compound>
CCN(C)[C@H]1CC[C@@H](Nc2cc(C(=O)NC[C@H](O)CN3CCc4ccccc4C3)ncn2)CC1

>  <EC50>
> 5000 nM

$$$$
>  <Compound>
CC(=O)N1CC(Nc2ccnc(C(=O)NC[C@H](O)CN3CCc4ccccc4C3)c2)C1

>  <EC50>
< 100 nM

$$$$
>  <Compound>
O=C(NC[C@H](O)CN1CCc2ccccc2C1)c1cc(NC2CCNCC2)ccn1

>  <EC50>
> 5000 nM

$$$$
>  <Compound>
CC(C)(C)c1nc(NC2COC2)cc(C(=O)NC[C@H](O)CN2CCc3ccccc3C2)n1

>  <EC50>
101 to 1000 nM

$$$$
>  <Compound>
O=C(NC[C@H](O)CN1CCc2ccccc2C1)c1cnnc(OC2CCN(CC(F)(F)F)CC2)c1

>  <EC50>
1000 to 10000 nM

$$$$
>  <Compound>
COCCN(C)c1nc(NC2COC2)cc(C(=O)NC[C@H](O)CN2CCc3ccccc3C2)n1

>  <EC50>
< 100 nM

$$$$
>  <Compound>
CC(C)N1CCN(c2nc(NC3CNC3)cc(C(=O)NC[C@H](O)CN3CCc4ccccc4C3)n2)CC1

>  <EC50>
10000 to 50000 nM

$$$$
>  <Compound>
CC(=O)N1CCC(Nc2cc(C(=O)NC[C@H](O)CN3CCc4c(C)cccc4C3)ccn2)CC1

>  <EC50>
101 to 1000 nM

$$$$
>  <Compound>
O=C(NC[C@H](O)CN1CCc2ccccc2C1)c1cc(N[C@H]2CC[C@H](O)CC2)ncn1

>  <EC50>
101 to 1000 nM

$$$$
>  <Compound>
NC(=O)[C@H]1CC[C@H](Nc2cc(C(=O)NC[C@H](O)CN3CCc4ccccc4C3)ncn2)CC1

>  <EC50>
101 to 1000 nM

$$$$
>  <Compound>
O=C(NCCCN1CCc2ccccc2C1)c1cc(NC2COC2)ncn1

>  <EC50>
> 5000 nM

$$$$
>  <Compound>
COCCN(CCOC)[C@H]1C[C@H](Nc2cc(C(=O)NC[C@H](O)CN3CCc4ccccc4C3)ncn2)C1

>  <EC50>
101 to 1000 nM

$$$$
>  <Compound>
CC(=O)N1CC(Nc2cc(C(=O)NC[C@H](O)CN3CCc4cccc(C)c4C3)ncn2)C1

>  <EC50>
101 to 1000 nM

$$$$
>  <Compound>
N[C@H]1CC[C@@H](Nc2cc(C(=O)NC[C@H](O)CN3CCc4ccccc4C3)ncn2)CC1

>  <EC50>
1000 to 10000 nM

$$$$
>  <Compound>
CC(C)N1CCN(c2nc(NC3COC3)cc(C(=O)NC[C@H](O)CN3CCc4ccccc4C3)n2)CC1

>  <EC50>
< 100 nM

$$$$
>  <Compound>
CCc1nc(NC2COC2)cc(C(=O)NC[C@H](O)CN2CCc3ccccc3C2)n1

>  <EC50>
101 to 1000 nM

$$$$
>  <Compound>
COCCN1CCC(Nc2ccnc(C(=O)NC[C@H](O)CN3CCc4ccccc4C3)c2)CC1

>  <EC50>
1000 to 10000 nM

$$$$
>  <Compound>
CNCCN(C)c1nc(NC2CNC2)cc(C(=O)NC[C@H](O)CN2CCc3ccccc3C2)n1

>  <EC50>
1000 to 10000 nM

$$$$
>  <Compound>
CSCCN1CC(Nc2cc(C(=O)NC[C@H](O)CN3CCc4ccccc4C3)ncn2)C1

>  <EC50>
1000 to 10000 nM

$$$$
>  <Compound>
O=C(NC[C@H](O)CN1CCc2ccccc2C1)c1cnnc(OC2CCNCC2)c1

>  <EC50>
10000 to 50000 nM

$$$$
>  <Compound>
CN1CC(Nc2ccnc(C(=O)NC[C@H](O)CN3CCc4ccccc4C3)c2)C1

>  <EC50>
> 5000 nM

$$$$
>  <Compound>
CC(=O)N1CCC(Nc2cc(C(=O)NC[C@H](O)CN3CCc4ccccc4C3)cc(N(C)C)n2)CC1

>  <EC50>
< 100 nM

$$$$
>  <Compound>
Cc1cnc(NC2CCN(CC(F)(F)F)C2)cc1C(=O)NC[C@H](O)CN1CCc2ccccc2C1 (stereo partly shown)

>  <EC50>
1000 to 10000 nM

$$$$
>  <Compound>
CC(C)C(=O)N1CC(Nc2cc(C(=O)NC[C@H](O)CN3CCc4ccccc4C3)ccn2)C1

>  <EC50>
< 100 nM

$$$$
>  <Compound>
O=C(NC[C@H](O)CN1CCc2ccccc2C1)c1cc(OC2CNC2)ncn1

>  <EC50>
10000 to 50000 nM

$$$$
>  <Compound>
O=C(NC[C@H](O)CN1CCc2ccccc2C1)c1cc(NC2CCN(C(=O)C3CC3)CC2)ncn1

>  <EC50>
< 100 nM

$$$$

The measured values listed here are drawn from patent US10307413B2.
